biological target: PI3K-delta (Homo sapiens); experiment: PI3K-delta fluorescence polarization assay; format: biochemical; conditions: read-out: PI3Kδ Avg. IC50
Sequence (O00329 whole entry, species assumed): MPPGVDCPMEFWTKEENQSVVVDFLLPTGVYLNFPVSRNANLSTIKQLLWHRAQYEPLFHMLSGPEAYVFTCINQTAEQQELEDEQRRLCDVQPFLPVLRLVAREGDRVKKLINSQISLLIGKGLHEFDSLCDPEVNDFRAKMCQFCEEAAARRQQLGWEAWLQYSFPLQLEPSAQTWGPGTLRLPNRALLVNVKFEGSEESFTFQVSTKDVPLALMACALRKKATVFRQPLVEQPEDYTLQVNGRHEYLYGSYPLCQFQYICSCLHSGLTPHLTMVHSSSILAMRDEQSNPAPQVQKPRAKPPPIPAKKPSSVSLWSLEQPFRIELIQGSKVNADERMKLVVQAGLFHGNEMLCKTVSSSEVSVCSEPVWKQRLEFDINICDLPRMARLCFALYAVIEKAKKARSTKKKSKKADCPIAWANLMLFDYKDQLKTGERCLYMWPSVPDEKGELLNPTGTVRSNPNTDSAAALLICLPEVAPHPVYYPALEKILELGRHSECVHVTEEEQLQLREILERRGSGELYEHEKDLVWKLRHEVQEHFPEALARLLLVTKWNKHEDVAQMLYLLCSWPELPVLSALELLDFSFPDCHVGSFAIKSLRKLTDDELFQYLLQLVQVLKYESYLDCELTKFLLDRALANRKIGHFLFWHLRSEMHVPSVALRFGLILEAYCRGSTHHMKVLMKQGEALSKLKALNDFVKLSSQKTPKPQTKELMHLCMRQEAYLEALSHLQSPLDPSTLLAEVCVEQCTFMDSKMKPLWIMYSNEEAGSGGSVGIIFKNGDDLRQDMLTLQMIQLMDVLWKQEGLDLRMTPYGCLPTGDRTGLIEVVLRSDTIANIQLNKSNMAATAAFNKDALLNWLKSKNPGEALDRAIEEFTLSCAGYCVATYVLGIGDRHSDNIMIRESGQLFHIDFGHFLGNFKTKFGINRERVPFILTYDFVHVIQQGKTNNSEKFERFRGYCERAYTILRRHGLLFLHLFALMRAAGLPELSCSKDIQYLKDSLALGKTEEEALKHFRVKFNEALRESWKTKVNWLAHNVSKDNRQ
Sequence (P27986 whole entry partner, species assumed): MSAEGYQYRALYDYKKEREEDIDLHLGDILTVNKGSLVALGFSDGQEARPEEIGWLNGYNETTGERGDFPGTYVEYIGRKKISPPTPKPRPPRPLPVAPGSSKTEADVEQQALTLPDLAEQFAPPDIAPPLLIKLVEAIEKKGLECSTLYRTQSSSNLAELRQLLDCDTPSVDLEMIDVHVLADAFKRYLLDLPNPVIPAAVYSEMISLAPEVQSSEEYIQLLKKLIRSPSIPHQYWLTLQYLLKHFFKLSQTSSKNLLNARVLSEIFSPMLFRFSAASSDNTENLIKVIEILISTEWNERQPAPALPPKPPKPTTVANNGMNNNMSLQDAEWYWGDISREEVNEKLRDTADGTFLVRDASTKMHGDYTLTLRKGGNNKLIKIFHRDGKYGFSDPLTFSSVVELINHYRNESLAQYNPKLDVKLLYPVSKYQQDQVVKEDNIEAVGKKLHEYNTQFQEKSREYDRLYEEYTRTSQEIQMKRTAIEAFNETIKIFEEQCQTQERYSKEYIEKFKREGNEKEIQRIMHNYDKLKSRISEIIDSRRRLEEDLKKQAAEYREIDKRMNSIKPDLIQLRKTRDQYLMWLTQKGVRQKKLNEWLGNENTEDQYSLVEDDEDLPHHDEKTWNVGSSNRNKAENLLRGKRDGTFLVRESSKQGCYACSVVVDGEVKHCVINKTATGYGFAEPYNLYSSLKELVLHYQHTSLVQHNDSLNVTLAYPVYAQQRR
Response field class: enum, chosen by comparing IC50 against bucket A (below 3 nM), bucket B (3 nM to below 10 nM), bucket C (10 nM or more)

### Prompt // return the class label for COc1ccc2[nH]c(C(=O)O)c(/C=C3\Oc4cc(O)cc(O)c4C3=O)c2c1
### Response bucket C

### Prompt // return the class label for COc1ccc2c(c1)c(C=C1Oc3cc(O)cc(O)c3C1=O)cn2CCCN1CCOCC1
### Response bucket B

### Prompt // return the class label for COc1ccc2c(c1)c(/C=C1\Oc3cc(O)cc(O)c3C1=O)c(C1CC1)n2CCN1CCC(O)C1 (stereo not shown)
### Response bucket A

This collection of values is drawn from patent US20090311217A1.
